// reported TXK/ITK for each item listed
biological target: TXK (Homo sapiens (Human)); experiment: IC50 against TXK; type: biochemical; conditions: ratio of TXK IC50 to ITK IC50
Sequence (P42681 whole entry, species assumed): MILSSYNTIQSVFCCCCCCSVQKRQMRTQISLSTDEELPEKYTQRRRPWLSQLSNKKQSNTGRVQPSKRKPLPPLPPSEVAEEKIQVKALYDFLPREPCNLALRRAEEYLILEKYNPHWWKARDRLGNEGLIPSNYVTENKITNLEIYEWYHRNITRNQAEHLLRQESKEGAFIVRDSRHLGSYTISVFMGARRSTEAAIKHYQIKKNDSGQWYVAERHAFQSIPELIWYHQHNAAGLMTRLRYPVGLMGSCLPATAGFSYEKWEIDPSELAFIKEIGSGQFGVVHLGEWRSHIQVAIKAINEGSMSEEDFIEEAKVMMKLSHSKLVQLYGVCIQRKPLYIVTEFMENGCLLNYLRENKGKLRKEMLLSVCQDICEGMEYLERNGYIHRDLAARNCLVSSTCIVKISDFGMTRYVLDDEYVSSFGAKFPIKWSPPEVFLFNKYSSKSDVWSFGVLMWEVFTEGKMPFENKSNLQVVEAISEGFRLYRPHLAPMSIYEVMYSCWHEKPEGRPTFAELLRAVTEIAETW
Answer as a number with no unit attached.

Guide cases for TXK/ITK, answers given:
C=CC(=O)N1CCN(C(=O)c2cc(C(C)c3cnc(NC(=O)C4CC4)s3)c(C)cc2OC)CC1 (stereo not shown) [Compound 140] | 2.66
C=CC(=O)N1CCN(C(=O)c2cc(Sc3cnc(NC(=O)c4ccsc4)s3)c(C)cc2OC)CC1(C)C [Compound 141] | 14.70

Consider the compound C=CC(=O)N1CC[C@@H](N(C)C(=O)c2cc(Sc3cnc(Nc4ccccn4)s3)c(C)cc2OC)C1 [Compound 154] and give its measured TXK/ITK.
1.01

Consider the compound C=CC(=O)N1[C@@H]2CC[C@H]1CN(C(=O)c1cc(Sc3cnc(Nc4ccccn4)s3)c(C)cc1OC)C2 [Compound 150] and give its measured TXK/ITK.
1.76

Consider the compound C=CC(=O)N1CCN(C(=O)c2cc(Sc3cnc(NC(=O)c4cnn(C)c4)s3)c(C)cc2OC)CC1 [Compound 91] and give its measured TXK/ITK.
20.093

Consider the compound C=CC(=O)N1CCCN(C(=O)c2cc(Sc3cnc(NC(=O)N(C)C)s3)c(C)cc2OC)C[C@H]1C [Compound 110] and give its measured TXK/ITK.
46.6

Consider the compound COc1cc(C)c(Sc2cnc(NC(=O)C3CC3)s2)cc1C(=O)N1CCCN(C(=O)/C=C/CN(C)C)[C@H](C)C1 [Compound 94] and give its measured TXK/ITK.
61.81

* * *

// reported TXK/ITK for each item listed
biological target: TXK (Homo sapiens (Human)); assay: IC50 against TXK; assay type: biochemical; settings: ratio of TXK IC50 to ITK IC50
Answer as a number with no unit attached.

Guide cases for TXK/ITK, answers given:
C=CC(=O)N1CC[C@@H](N(C)C(=O)c2cc(Sc3cnc(NC(=O)c4ccsc4)s3)c(C)cc2OC)C1 [Compound 146] | 3.19
C=CC(=O)N1CCN(C(=O)c2cc(Sc3cnc(Nc4ncc(C)nc4C)s3)c(C)cc2C)CC1 [Compound 139] | 4.65
C=CC(=O)N1CCCN(C(=O)c2cc(Sc3cnc(NC(C)=O)s3)c(C)cc2OC)CC1 [Compound 26] | 26.486
C=CC(=O)N1CCN(C(=O)c2cc(Sc3cnc(NC(=O)c4cccc(CN(C)C)c4)s3)c(C)cc2OC)C[C@H]1C [Compound 32] | 81.114
C=CC(=O)N1CCN(C(=O)c2cc(Sc3cnc(NC(=O)C4CC4)s3)c(C)cc2C(F)(F)F)CC1 [Compound 68] | 3.6548

Consider the compound C=CC(=O)N1CCN(C(=O)c2cc(Sc3cnc(Nc4ccccn4)s3)c(C)cc2OC)C[C@H]1C#N [Compound 153] and give its measured TXK/ITK.
0.61

Consider the compound C=CC(=O)N1CCN(C(=O)c2cc(Sc3cnc(NC(=O)c4ccc(N5CCN(C(=O)OC(C)(C)C)CC5)cc4)s3)c(C)cc2OC)CC1 [Compound 40] and give its measured TXK/ITK.
14.491

Consider the compound C=CC(=O)N1CCN(C(=O)c2cc(Sc3cnc(NC(=O)C4CC4)s3)c(C)cc2OC)C[C@@H]1C [Compound 22] and give its measured TXK/ITK.
6.7674

Consider the compound C=CC(=O)N1CCN(C(=O)c2cccc(Cc3cnc(NC(=O)C4CC4)s3)c2)CC1 [Compound 4] and give its measured TXK/ITK.
0.3296

Consider the compound C=CC(=O)N1CCN(C(=O)c2cc(Sc3cnc(NC(=O)c4ccc(CN(C)C)cc4)s3)c(C)cc2OC)CC1 [Compound 34] and give its measured TXK/ITK.
33.121

Consider the compound C=CC(=O)N1CCN(C(=O)c2cc(Sc3cnc(NC(=O)CC)s3)c(C)cc2OC)[C@@H](C)C1 [Compound 51] and give its measured TXK/ITK.
14.645

Consider the compound C=CC(=O)N1CCCN(C(=O)c2cc(Sc3cnc(NC(=O)C4CC4)s3)c(C)cc2OC)CC1 [Compound 25] and give its measured TXK/ITK.
20.879

Consider the compound C=CC(=O)N1CCN(C(=O)c2cc(Sc3cnc(NC(=O)c4cccc(CN(C)C)c4)s3)c(C)cc2OC)C[C@H]1CC [Compound 117] and give its measured TXK/ITK.
65.5

Consider the compound C=CC(=O)N1CCN(C(=O)c2cc(Sc3cnc(NC(=O)c4cccc(CN(C)C)c4)s3)c(C)cc2C)C[C@H]1CC [Compound 129] and give its measured TXK/ITK.
46.0

Consider the compound C=CC(=O)N1CC[C@H](N(C)C(=O)c2cc(Sc3cnc(NC(C)=O)s3)c(C)cc2OC)C1 [Compound 30] and give its measured TXK/ITK.
3.101

Consider the compound C=CC(=O)N1CCCN(C(=O)c2cc(Sc3cnc(NC(=O)c4cccc(CN(C)C)c4)s3)c(C)cc2OC)C[C@H]1C [Compound 48] and give its measured TXK/ITK.
519.55

* * *

// reported IC50 for each item listed
molecular target: ITK (Homo sapiens (Human), UniProt Q08881); assay: IC50 against ITK; format: biochemical
Sequence (Q08881 whole entry): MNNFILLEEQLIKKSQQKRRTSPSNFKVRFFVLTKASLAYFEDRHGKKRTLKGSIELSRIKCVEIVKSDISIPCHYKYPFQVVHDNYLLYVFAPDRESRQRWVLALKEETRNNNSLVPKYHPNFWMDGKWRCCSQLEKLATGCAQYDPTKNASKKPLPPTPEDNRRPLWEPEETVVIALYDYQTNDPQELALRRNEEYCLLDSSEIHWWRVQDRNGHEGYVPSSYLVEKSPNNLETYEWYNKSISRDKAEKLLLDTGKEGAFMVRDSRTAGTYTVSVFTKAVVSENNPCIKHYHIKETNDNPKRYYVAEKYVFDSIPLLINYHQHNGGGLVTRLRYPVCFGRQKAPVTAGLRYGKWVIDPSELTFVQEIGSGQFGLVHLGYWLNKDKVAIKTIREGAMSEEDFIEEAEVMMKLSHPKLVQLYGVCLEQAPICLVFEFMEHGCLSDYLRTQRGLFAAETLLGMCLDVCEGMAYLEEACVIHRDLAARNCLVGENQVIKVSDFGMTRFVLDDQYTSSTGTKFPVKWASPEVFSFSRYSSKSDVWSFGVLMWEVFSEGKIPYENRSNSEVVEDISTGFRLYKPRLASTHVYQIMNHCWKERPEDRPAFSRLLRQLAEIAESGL

Consider the molecule "C=CC(=O)N1CCN(C(=O)c2cc(Sc3cnc(NC(=O)C4CC4)s3)c(C)cc2OC)[C@H](C)C1" and give its measured IC50.
< 10 nM

Consider the molecule "COc1cc(C)c(Sc2cnc(NC(=O)C3CC3)s2)cc1C(=O)N1CCN(C(=O)/C=C/CN(C)C)CC1" and give its measured IC50.
10 to 100 nM

Consider the molecule "C=CC(=O)N1[C@@H]2CC[C@H]1CN(C(=O)c1cc(Sc3cnc(NC(=O)C4CC4)s3)c(C)cc1OC)C2" and give its measured IC50.
< 10 nM

Consider the molecule "C=C(C)C(=O)N1CCCN(C(=O)c2cc(Sc3cnc(NC(=O)c4cccc(CN(C)C)c4)s3)c(C)cc2OC)CC1" and give its measured IC50.
100 to 1000 nM

Consider the molecule "C=CC(=O)N1CCCN(C(=O)c2cc(Sc3cnc(NC(=O)c4cnsc4)s3)c(C)cc2OC)C[C@H]1C" and give its measured IC50.
< 10 nM

* * *

biological target: BTK (Homo sapiens (Human)); assay: IC50 against BTK; type: biochemical
Sequence (Q06187 whole entry, species assumed): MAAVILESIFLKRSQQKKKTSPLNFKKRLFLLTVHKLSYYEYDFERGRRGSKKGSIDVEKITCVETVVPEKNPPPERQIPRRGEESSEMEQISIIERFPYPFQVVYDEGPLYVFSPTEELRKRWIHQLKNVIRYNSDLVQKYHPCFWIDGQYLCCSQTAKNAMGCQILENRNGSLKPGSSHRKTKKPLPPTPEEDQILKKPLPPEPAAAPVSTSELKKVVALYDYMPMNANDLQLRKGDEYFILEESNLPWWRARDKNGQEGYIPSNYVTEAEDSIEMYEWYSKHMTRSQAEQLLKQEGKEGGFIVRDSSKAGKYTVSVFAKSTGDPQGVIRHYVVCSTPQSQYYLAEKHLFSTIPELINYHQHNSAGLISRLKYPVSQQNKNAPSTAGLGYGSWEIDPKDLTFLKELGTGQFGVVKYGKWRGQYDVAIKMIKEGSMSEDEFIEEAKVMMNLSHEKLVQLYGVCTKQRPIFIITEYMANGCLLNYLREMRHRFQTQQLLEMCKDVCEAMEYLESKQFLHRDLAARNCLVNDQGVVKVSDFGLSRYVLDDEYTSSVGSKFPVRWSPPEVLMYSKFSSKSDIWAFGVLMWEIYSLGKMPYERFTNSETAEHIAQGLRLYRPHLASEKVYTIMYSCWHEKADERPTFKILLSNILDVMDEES
// reported IC50 for each item listed

Guide cases for IC50, answers given:
C=CC(=O)N1CCN(C(=O)c2cc(Sc3cnc(NC(C)=O)s3)c(C)cc2OC)C[C@H]1C | 1000 to 10000 nM
C=CC(=O)N1CCN(C(=O)c2cc(Sc3cnc(NC(=O)C4CC4)s3)c(C)cc2C)C[C@H]1CC | 1000 to 10000 nM
C=CC(=O)N1CCN(C(=O)c2cc(Sc3cnc(NC(C)=O)s3)c(C)cc2OC)CC1 | 100 to 1000 nM

Attention now shifts to the item below.
# value lookup — system BTK (Homo sapiens (Human)), readout IC50, item "C=CC(=O)N1CCN(C(=O)c2cc(Sc3cnc(Nc4ccccn4)s3)c(C)cc2OC)[C@@H](C)C1"
10 to 100 nM

* * *

biological target: JAK3 (Homo sapiens (Human), UniProt P52333); experiment: IC50 against JAK3; format: biochemical
Sequence (P52333 whole entry, species assumed): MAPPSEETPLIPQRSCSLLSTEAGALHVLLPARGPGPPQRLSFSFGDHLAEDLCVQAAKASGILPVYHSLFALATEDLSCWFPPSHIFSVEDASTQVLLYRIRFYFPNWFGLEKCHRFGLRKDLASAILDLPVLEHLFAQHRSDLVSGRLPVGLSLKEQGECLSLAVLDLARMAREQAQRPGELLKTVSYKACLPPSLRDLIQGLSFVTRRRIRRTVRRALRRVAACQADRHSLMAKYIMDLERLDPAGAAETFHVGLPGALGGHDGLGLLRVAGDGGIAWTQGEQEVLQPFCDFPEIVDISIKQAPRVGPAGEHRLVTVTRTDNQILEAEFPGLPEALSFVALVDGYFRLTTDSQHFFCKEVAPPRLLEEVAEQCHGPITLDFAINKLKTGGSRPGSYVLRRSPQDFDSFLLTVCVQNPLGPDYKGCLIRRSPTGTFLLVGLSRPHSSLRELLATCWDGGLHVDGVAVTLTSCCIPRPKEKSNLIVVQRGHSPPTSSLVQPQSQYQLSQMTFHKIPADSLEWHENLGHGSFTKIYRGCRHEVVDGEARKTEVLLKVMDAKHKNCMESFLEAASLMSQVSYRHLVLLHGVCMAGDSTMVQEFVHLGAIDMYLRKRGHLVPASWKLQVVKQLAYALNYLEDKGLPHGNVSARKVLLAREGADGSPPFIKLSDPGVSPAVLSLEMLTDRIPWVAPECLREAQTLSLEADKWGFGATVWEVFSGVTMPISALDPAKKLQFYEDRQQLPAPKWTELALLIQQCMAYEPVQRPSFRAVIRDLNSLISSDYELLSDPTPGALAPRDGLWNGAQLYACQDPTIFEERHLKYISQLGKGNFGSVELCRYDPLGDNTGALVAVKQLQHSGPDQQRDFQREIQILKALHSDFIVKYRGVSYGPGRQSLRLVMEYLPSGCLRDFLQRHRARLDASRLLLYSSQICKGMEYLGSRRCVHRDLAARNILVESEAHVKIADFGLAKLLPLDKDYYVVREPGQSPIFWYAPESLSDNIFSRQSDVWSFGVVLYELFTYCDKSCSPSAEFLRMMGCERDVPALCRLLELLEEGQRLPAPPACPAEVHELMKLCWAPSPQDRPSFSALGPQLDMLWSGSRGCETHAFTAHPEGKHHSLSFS
observation_type: IC50

C=C(C)C(=O)N1CCCN(C(=O)c2cc(Sc3cnc(NC(=O)c4cccc(CN(C)C)c4)s3)c(C)cc2OC)CC1 | ≥ 10000 nM

Consider the compound "C=CC(=O)N1CCN(C(=O)c2cc(Sc3cnc(NC(=O)c4cccc(CN(C)C)c4)s3)c(C)cc2C)CC1" and give its measured IC50.
100 to 1000 nM

Consider the compound "C=CC(=O)N1CCN(C(=O)c2cc(Sc3cnc(NC(=O)c4cnsc4)s3)c(C)cc2OC)C[C@H]1CC" and give its measured IC50.
1000 to 10000 nM

Consider the compound "C=CC(=O)N1CCCN(C(=O)c2cc(Sc3cnc(NC(=O)C4CC4)s3)c(C)cc2C)C[C@H]1CC" and give its measured IC50.
1000 to 10000 nM

* * *

target: BTK (Homo sapiens (Human)); test: IC50 against BTK; type: biochemical
observation_type: IC50

Guide cases for IC50, answers given:
C=CC(=O)N1CCN(C(=O)c2cc(Sc3cnc(NC(=O)C4CC4)s3)c(C)cc2CC)CC1 | 10 to 100 nM
C=CC(=O)N1CCCN(C(=O)c2cc(Sc3cnc(NC(=O)C4CC4)s3)c(C)cc2OC)CC1 | 100 to 1000 nM
C=CC(=O)N1CCN(C(=O)c2cc(Sc3cnc(NC(=O)c4nccn4C)s3)c(C)cc2OC)CC1 | 100 to 1000 nM
C=CC(=O)N1CCCN(C(=O)c2cc(Sc3cnc(NC(=O)C4CC4)s3)c(C)cc2OC)C[C@@H]1C | 1000 to 10000 nM

Consider the compound "C=CC(=O)N1CCN(C(=O)c2cc(Sc3cnc(Nc4ncc(C)cc4C)s3)c(C)cc2C)CC1" and give its measured IC50.
100 to 1000 nM

Data origin, for the record: patent US11008314B2
